- Tested on: SF-295
- METHOD NOTES: NCI tumour cell line growth inhibition, 48 h
Calls of active or inactive are those of the source. No stated cut-off is given here; in the data, active = GI50 up to about 1.1 µM and inactive = higher.
For each entry below, report its GI50 value.

Below, 4 compounds whose answers are already recorded.
>  <COMPOUND>
O=[N+]([O-])c1cc(-c2nc(-c3ccccc3)c(-c3ccccc3)[nH]2)c(O)c([N+](=O)[O-])c1

>  <GI50>
22.3 µM (inactive)

$$$$
>  <COMPOUND>
COc1cc(/C=N\c2nc(-c3ccc(NS(=O)(=O)c4ccc(Cl)c(OC)c4)cc3)cs2)ccc1O

>  <GI50>
> 100 µM (inactive)

$$$$
>  <COMPOUND>
COC(=O)C1CCC(=O)N1C(=O)Cc1ccc(OC)cc1 (stereo not given)

>  <GI50>
> 100 µM (inactive)

$$$$
>  <COMPOUND>
CCOC(=O)/C(=C\c1ccc(C#N)cc1)C(C)=O

>  <GI50>
34.5 µM (inactive)

$$$$

Problem: Which measured GI50 value corresponds to CC(C)(NC(=O)OCc1ccccc1)C(=O)OC(=O)C(C)(C)NC(=O)OCc1ccccc1 ?
Result: > 100 µM (inactive)

* * *

Assign GI50 to each entry below.
- Tested on: SK-OV-3
- METHOD NOTES: NCI tumour cell line growth inhibition, 48 h
Active and inactive are the calls of the source. Cut-off read from the data, not from the text of the source: active = GI50 up to about 1.1 µM and inactive = higher.

Lab note: each molecule below needs its GI50 filled in.
1. O=C1Nc2ccccc2C(=O)/C1=C/NC(=S)NCc1ccccc1
2. COc1cc(C2(c3ncc[nH]3)SSSCC2O)ccc1O (stereo unspecified)
3. C=CCC(C)(C(=O)NCCC)C(=O)c1ccccc1O (stereo unspecified)

Result:
> 100 µM (inactive)
66.4 µM (inactive)
> 100 µM (inactive)

* * *

- Tested on: EKVX
- METHOD NOTES: NCI tumour cell line growth inhibition, 48 h
Active and inactive are the calls of the source. Cut-off read from the data, not from the text of the source: active = GI50 up to about 1.1 µM and inactive = higher.
Exercise: for every item that follows, state its recorded GI50.

A selection of reference data follows.
>  <MOLECULE>
c1sc(NC2=NCCO2)c2c1CCCC2

>  <ASSAY READOUT>
GI50

>  <RECORDED RESULT>
> 100 µM (inactive)

$$$$
>  <MOLECULE>
O=c1[nH]c(=O)n(C2CC(O)C(CO)O2)cc1/N=N/NCCCc1ccccc1 (stereo not drawn)

>  <ASSAY READOUT>
GI50

>  <RECORDED RESULT>
> 100 µM (inactive)

$$$$
>  <MOLECULE>
N#Cc1ccccc1NC(=O)C(=O)C1NC(=S)NC1=O (stereo not drawn)

>  <ASSAY READOUT>
GI50

>  <RECORDED RESULT>
> 100 µM (inactive)

$$$$
>  <MOLECULE>
CCOC(=O)Cc1cc(=O)[nH]c(-n2[nH]c(C)c(CCO)c2=O)n1

>  <ASSAY READOUT>
GI50

>  <RECORDED RESULT>
> 100 µM (inactive)

$$$$
>  <MOLECULE>
COc1cc(C(=O)N(C(=O)N2CCCCC2)c2ccccc2)cc(OC)c1OC

>  <ASSAY READOUT>
GI50

>  <RECORDED RESULT>
> 100 µM (inactive)

$$$$
>  <MOLECULE>
C[n+]1c(Cl)cn2c3nc4ccccc4nc3c([O-])c(C#N)c21

>  <ASSAY READOUT>
GI50

>  <RECORDED RESULT>
> 100 µM (inactive)

$$$$
>  <MOLECULE>
O=C(O)CNS(=O)(=O)c1ccc(NC(=O)Nc2ccccc2)cc1

>  <ASSAY READOUT>
GI50

>  <RECORDED RESULT>
> 100 µM (inactive)

$$$$
>  <MOLECULE>
O=C(O)/C=C\C(=O)Nn1c(Cc2ccc(Cl)cc2)n[nH]c1=O

>  <ASSAY READOUT>
GI50

>  <RECORDED RESULT>
> 100 µM (inactive)

$$$$

# map each molecule to its GI50
1. CC(=O)N1c2ccccc2C(C)C1c1[nH]c2ccccc2c1C (stereo not drawn)
2. CC(C)=CCC/C(C)=C/CCC(C(=O)COCc1ccccc1)P1(=O)OC(C)(C)CN1C(C)(C)C (stereo not drawn)

Result:
1: 18.1 µM (inactive); 2: > 100 µM (inactive)

# per-item lookup of GI50; items listed below
1. O=C1N/C(=N/N=C\C(O)C(O)C(O)C(O)CO)N/C1=C\c1ccc(Cl)cc1 (stereo not drawn)
2. Cc1cc2c(cc1N)C(C)C1(CCC(=O)N2Cc2ccccc2)OCCO1 (stereo not drawn)
3. CCCCCCc1cc2cc(-c3cn4ccsc4n3)c(=O)oc2cc1O

Result:
1. 12.1 µM (inactive)
2. > 100 µM (inactive)
3. > 77.6 µM (inactive)

Could I get GI50 for every one of these entries?
1. O=C(CC1(O)C(=O)Nc2ccccc21)c1ccc(Cl)c(Cl)c1 (stereo not drawn)
2. S=c1sc2nc(Cl)nc(Cl)c2s1
3. CN1C(=O)C(CCO)(C(C)(C)C)c2ccccc21 (stereo not drawn)
4. Cc1cc(N)c2ccccc2[n+]1CCCCCCCCCC[n+]1c(C)cc(N)c2ccccc21 [DEQUALINIUM CHLORIDE]
5. CC(=O)Nc1ccccc1-c1cnc2ccccc2n1
6. CN(C)CCNC(=O)c1cccc2[nH]c(-c3ccc(Cl)cc3)nc12
7. CC(C)COC(=O)N1N=NC2C3OC(CC3=O)C21 (stereo not drawn)

Result:
1. 69.3 µM (inactive)
2. 16.9 µM (inactive)
3. > 100 µM (inactive)
4. 1.82 µM (inactive)
5. > 100 µM (inactive)
6. 12.4 µM (inactive)
7. > 100 µM (inactive)

Parameters: items (list). Returns: GI50 for each item.
1. N#Cc1[nH]c(=O)n(-c2ccc(Cl)cc2)c1N
2. CCOC(=O)c1c[nH]cc1-c1cn(S(=O)(=O)c2ccccc2)cc1C
3. COc1cc(/C=C(\C#N)c2ccccn2)cc(Br)c1O

Result:
1. > 10 µM (inactive)
2. 14.6 µM (inactive)
3. 97.5 µM (inactive)
